test system: CCRF-CEM leukemia; test: NCI-60 one-dose screen, 48 h; details: 10 µM unless noted
The panel holds about 83,000 compounds, 20% with a hit somewhere; the sample as a whole holds those more often. Activity calls are given as the source filed them. The calls were made as follows: active = growth percent below 10; inactive = the rest.
Select the correct class. Options are yes (1) for active, no (0) for inactive and nothing else.

For `O=C(NCCCNC(=O)OCc1ccc2cccc(O)c2n1)OCc1ccc2cccc(O)c2n1` , which call appears in the assay record? yes (1)

Check the results log: what was the call for `Cn1cc(-c2noc(-c3cn(C)c4ncc(F)cc34)n2)c2ccccc21` ? no (0)

Lab log entry: `Oc1ccc(N=Nc2nccs2)c(O)c1` — outcome as called in the assay? no (0)

Which result was noted for this molecule in the test: `O=C1/C(=C/c2ccc(OCc3ccccc3)cc2)Oc2cc(OCCN3CCCCC3)ccc21` no (0)

For `N#C/C(=C(/O)CCCO)c1nc2ccccc2c(=O)[nH]1` , what call appears in the results of this test? no (0)

Check the results log: what was the call for `Cc1cc(C)c(-c2cc(O)c(-c3c(C)cc(C)cc3C)cc2O)c(C)c1` ? no (0)

Check the results log: what was the call for `O=C(CSc1nccc(Nc2ccc(S(=O)(=O)Nc3ccccn3)cc2)n1)c1ccc(Cl)cc1` ? yes (1)

What was the test verdict on `Cc1ccc(-c2cc(-c3ccc(C)cc3)nc(N3CCN(CCNc4ccnc5cc(Cl)ccc45)CC3)n2)cc1` ? yes (1)

Returns: the outcome recorded for `O=C(O)CSCc1nnc2n(Cc3ccccc3)c(=O)c3c4c(sc3n12)CCCC4` in this assay. no (0)

What is the recorded call for this molecule in the test? `C=C(C)[C@@H]1CC[C@]2(C)[C@H](CC[C@@H]3[C@@H]([C@@](C)(O)CCC=C(C)C)CC[C@]32C)[C@@]1(C)CCC(=O)N1CCN(C)CC1` yes (1)

Dear colleague, could you share the recorded outcome for `Cn1cc(-c2noc(C(=O)c3cn(C)c4ncc(Br)cc34)n2)c2ccccc21` when you have a moment? yes (1)

I would be grateful if you could indicate the recorded call for `COCc1nc2ccccc2[nH]1` . no (0)

Outcome logged for `Nc1cc(NN=C(c2ccc(O)cc2)c2ccc(O)cc2)c([N+](=O)[O-])cc1[N+](=O)[O-]` in this assay: no (0)

Record request — test call for `CCOC(=O)c1c[nH]n2c(=S)ncnc12` no (0)

So what was the verdict on `COc1cc(NCc2ccccc2O)c2ncccc2c1` in this test? no (0)

Give the logged outcome of this assay for the following molecule: `COc1ncc(-c2ccc3nccc(C#CCCCCC(=O)NO)c3c2)cc1NS(=O)(=O)c1ccc(F)cc1F` yes (1)

For `Cc1cccc([N+](=O)[O-])c1I` , which call appears in the assay record? no (0)

Assay result, entry CCN(CC)CCSC(=O)C(O)(c1ccccc1)C1CCCC1 (centres undefined) — outcome? no (0)

Which result was noted for this molecule in the test: `CCN(CCO)CCC(=O)c1ccc([N+](=O)[O-])cc1` no (0)

Record lookup: outcome of this test for CC[C@]1(O)CC2CN(CCc3c([nH]c4ccccc34)[C@@](C(=O)OC)(c3cc4c(cc3OC)N(C=O)[C@H]3[C@@](O)(C(=O)OC)[C@H](OC(C)=O)[C@]5(CC)C=CCN6CC[C@]43[C@@H]65)C2)C1 (some centres undefined) ? yes (1)

Tell me the assay call for `COc1cc2c(c(OC)c1OC)-c1cc(I)c(O)cc1[C@@H](NC(C)=O)CC2` please. no (0)

Assay result, entry `Cc1ccc(Cn2c(O)c(N=NC(=O)c3ccc(S(N)(=O)=O)cc3)c3ccccc32)cc1` — outcome? no (0)

Would you mind telling me which call this test gave `CCOC(=O)c1ccc2nc(-c3c(C)nn(-c4ccccc4)c3N3CCOCC3)[nH]c2c1` ? no (0)

// return assay outcome for `C=C1C(=O)O[C@H]2[C@H]1CC/C(COC(=O)NCc1ccc(Cn3c(=O)sn(-c4ccc(Cl)cc4)c3=O)cc1)=C\CC[C@@]1(C)O[C@@H]21` yes (1)

I would be grateful if you could indicate the recorded call for `COc1cc2c(O)n(CCCN3CCOCC3)c3c4cnc5cccc(c(=O)c3c2cc1OC)c54` . no (0)

Would you mind telling me which call this test gave `O=C1NC(=O)C(Cc2ccccc2)(Cc2ccccc2)N1` ? no (0)

Any idea what this test logged for Cc1nc(Cl)c2c(n1)N(C)c1ccc(Cl)cc1C(C)C2 (centres undefined) ? no (0)

Name the outcome recorded for CCN(CC)CC(C)Nc1ccc(C)c2sc3ccccc3c(=O)c12 (centres undefined) in the assay. no (0)

Recorded call for `Clc1ccccc1/C=N\Nc1ccccn1` ? no (0)

Write down the call the test reported for this molecule. Item: `Nc1nc(Nc2ccccc2)c2ncn(Cc3ccc4c(c3)OCO4)c2n1` no (0)

Per the records of this test, what outcome belongs to `C=C(C)[C@@H]1CC[C@]2(C(=O)O)CC[C@]3(C)[C@H](CC[C@@H]4[C@@]5(C)C/C(=C/c6ccco6)C(=O)C(C)(C)[C@@H]5CC[C@]43C)[C@@H]12` ? yes (1)

Identify the outcome logged in this assay for the molecule shown: `CC(=O)CC(=O)SC1=NCCS1` no (0)

Tell me the assay call for CCN(CC)CCCC(C)Nc1c2ccc(C)cc2nc2ccc(OC)cc12 (centres undefined) please. no (0)

Fill in: this test's call for `COc1cc(C)cc2oc3oc(=O)c(-c4nc5ccccc5s4)cc3c(=O)c12` is ___ no (0)

# outcome recorded in this test, key = `OC(c1ccc(Cl)cc1)(c1ccc(Cl)cc1)C(O)(c1ccc(Cl)cc1)c1ccc(Cl)cc1` no (0)

Hi, do you know how `CC1(C)CC[C@]2(C(=O)O)CC[C@]3(C)C(=CC[C@@H]4[C@@]5(C)C/C(=C/c6ccco6)C(=O)C(C)(C)[C@@H]5CC[C@]43C)[C@@H]2C1` came out in this test? yes (1)

Field: outcome | Entry: CC1Cc2ccc(OCCN(C)C)cc2C1=O (centres undefined) no (0)

Per the records of this test, what outcome belongs to CCN(CC)c1ccc2cc(C(Nc3ccc(Br)c(C(F)(F)F)c3)c3nnnn3C(C)(C)C)c(=O)oc2c1 (centres undefined) ? no (0)

Recorded test outcome, item CCCCC(CC)COC(=O)C[N+](C)(C)CCOC(c1ccccc1)c1ccccc1 (centres undefined) no (0)
